Catalogue of MIC99 values
System: Mycobacterium tuberculosis
assay_summary: Antimycobacterial activity against Mycobacterium tuberculosis H37Rv in 7H9/ADC/Tween medium measured at day 14 by Alamar Blue assay
Type: functional
condition_set: 336 h
readout_label: MIC99 (µM)

molecule	experimental_target	unit_info	value_operator	endpoint_result
Cc1cc(NCc2ccccn2)n2ncc(-c3ccc(F)cc3F)c2n1	Mycobacterium tuberculosis	µM	>	160
Cc1cc(NCCCc2ccccn2)n2nc(C)c(-c3ccccc3)c2n1	Mycobacterium tuberculosis	µM	=	80
Cc1cc(NCc2ccc(F)cn2)n2nc(C)c(-c3ccccc3)c2n1	Mycobacterium tuberculosis	µM	=	5
Cc1cc(NCCc2ccccn2)n2nc(C)c(-c3ccccc3)c2n1	Mycobacterium tuberculosis	µM	>	160
Cc1cc(NCc2cccc[n+]2[O-])n2ncc(-c3ccccc3)c2n1	Mycobacterium tuberculosis	µM	>	160
Cc1cc(NCc2ccccn2)n2nc(C)c(-c3cccnc3F)c2n1	Mycobacterium tuberculosis	µM	=	10
Cc1cc(NCc2ccco2)n2nc(C)c(-c3ccccc3)c2n1	Mycobacterium tuberculosis	µM	>	160
Cc1cc(NCc2ccccn2)n2ncc(-c3c(C)cccc3C)c2n1	Mycobacterium tuberculosis	µM	>	160
Cc1ccc(-c2cnn3c(NCc4ccccn4)cc(C)nc23)cc1	Mycobacterium tuberculosis	µM	=	5
Cc1cc(NCc2ccncc2)n2nc(C)c(-c3ccccc3)c2n1	Mycobacterium tuberculosis	µM	>	160
Cc1cc(NCc2ccccn2)n2ncc(-c3ccsc3)c2n1	Mycobacterium tuberculosis	µM	=	20
Cc1cc(NCc2nccs2)n2nc(C)c(-c3ccccc3)c2n1	Mycobacterium tuberculosis	µM	>	160
Cc1cc(NCc2ccccn2)n2ncc(-c3ccco3)c2n1	Mycobacterium tuberculosis	µM	=	40
Cc1cc(NCc2ccccn2)n2ncc(C3=CCOCC3)c2n1	Mycobacterium tuberculosis	µM	=	80
Cc1cc(NCC2CCCCN2)n2nc(C)c(-c3ccccc3)c2n1 (stereo not given)	Mycobacterium tuberculosis	µM	>	160
Cc1cc(NCc2ccccn2)n2ncc(-c3ccc(N(C)C)cc3)c2n1	Mycobacterium tuberculosis	µM	=	20
Cc1cc(Nc2ccccn2)n2nc(C)c(-c3ccccc3)c2n1	Mycobacterium tuberculosis	µM	>	160
Cc1cc(NCc2cccs2)n2nc(C)c(-c3ccccc3)c2n1	Mycobacterium tuberculosis	µM	>	160
Cc1cc(NCc2ccccn2)n2ncc(-c3ccc(C(=O)Nc4ccccc4)cc3)c2n1	Mycobacterium tuberculosis	µM	>	160
COc1ccc(-c2cnn3c(NCc4ccccn4)cc(C)nc23)cc1	Mycobacterium tuberculosis	µM	=	20
Cc1cc(NCc2ccccn2)n2ncc(-c3cccc(Cl)c3)c2n1	Mycobacterium tuberculosis	µM	=	2.5
Cc1cc(NCc2ccccn2)n2ncc(-c3cncnc3)c2n1	Mycobacterium tuberculosis	µM	=	160
Cc1cc(NCc2ccccn2)n2ncc(-c3ccccc3C)c2n1	Mycobacterium tuberculosis	µM	=	1.25
Cc1cc(NCc2ccccn2)n2ncc(-c3ccncc3)c2n1	Mycobacterium tuberculosis	µM	>	160
Cc1cc(NCc2cccnc2)n2nc(C)c(-c3ccccc3)c2n1	Mycobacterium tuberculosis	µM	>	160
Cc1cc(NCc2ccccn2)n2ncc(-c3ccn(C)n3)c2n1	Mycobacterium tuberculosis	µM	>	160
Cc1cccc(CNc2cc(C)nc3c(-c4ccccc4)c(C)nn23)n1	Mycobacterium tuberculosis	µM	>	160
Cc1cc(NCc2ccccn2)n2ncc(-c3ccc(F)cc3C)c2n1	Mycobacterium tuberculosis	µM	>	160
Cc1cc(NCc2cnccn2)n2nc(C)c(-c3ccccc3)c2n1	Mycobacterium tuberculosis	µM	=	80
Cc1cc(NCc2ccccn2)n2ncc(-c3ccc(F)cc3)c2n1	Mycobacterium tuberculosis	µM	=	5
CCN1CCCC1CNc1cc(C)nc2c(-c3ccccc3)c(C)nn12 (stereo not given)	Mycobacterium tuberculosis	µM	>	160
Cc1cc(NCc2ccccn2)n2ncc(-c3ccc(C(F)(F)F)cc3)c2n1	Mycobacterium tuberculosis	µM	>	160
Cc1cc(NCc2ccccn2)n2ncc(-c3cccc(N)c3)c2n1	Mycobacterium tuberculosis	µM	>	160
NC[C@H]1O[C@H](O[C@H]2[C@H](O)[C@@H](O[C@H]3O[C@H](CO)[C@@H](O)[C@H](N)[C@H]3O)[C@H](N)C[C@@H]2N)[C@H](O)[C@@H](O)[C@@H]1O [KANAMYCIN]	Mycobacterium tuberculosis	µM	=	6.45
Cc1cc(N(C)Cc2ccccn2)n2nc(C)c(-c3ccccc3)c2n1	Mycobacterium tuberculosis	µM	>	160
Cc1cc(NCc2ccccn2)n2nc(C)cc2n1	Mycobacterium tuberculosis	µM	=	5
Cc1cc(NCc2ccccn2)n2nc(C)c(-c3ccccc3)c2n1	Mycobacterium tuberculosis	µM	=	5
Cc1cc(NCc2nccn2C)n2nc(C)c(-c3ccccc3)c2n1	Mycobacterium tuberculosis	µM	=	5
Cc1cc(NCc2ccccn2)n2ncc(-c3ccc(C(=O)NCCN(C)C)cc3)c2n1	Mycobacterium tuberculosis	µM	>	160
Cc1cc(NCc2ccccn2)n2ncc(-c3ccc(O)cc3)c2n1	Mycobacterium tuberculosis	µM	>	160
Cc1cc(NCc2ccccn2)n2ncc(-c3ccccc3F)c2n1	Mycobacterium tuberculosis	µM	=	2.5
Cc1cc(NCc2c[nH]cn2)n2nc(C)c(-c3ccccc3)c2n1	Mycobacterium tuberculosis	µM	>	160
Cc1cc(NCc2ncc[nH]2)n2nc(C)c(-c3ccccc3)c2n1	Mycobacterium tuberculosis	µM	=	37
Cc1cc(NCc2ccc3ccccc3n2)n2nc(C)c(-c3ccccc3)c2n1	Mycobacterium tuberculosis	µM	>	160
Cc1cc(NCc2ccccn2)n2ncc(Br)c2n1	Mycobacterium tuberculosis	µM	>	160
